Measured protein stability index by item
assay: protein stability index of a GFP-peptide fusion (GPS, HEK-293T) (PSI 1-6); higher = more stable; conditions: treatment: MLN4924 1 uM, 8 h; c terminus: a fixed tail appended;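 further: 24-mer peptide tiles fused after GFP, lentivirally expressed, FACS-sorted into six equal bins by GFP/DsRed ratio, decoded by Illumina sequencing, PSI is the read-weighted mean bin number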

Example results:
{"columns": ["RESIDUES", "protein stability index"],
 "data": [
  ["VSVIQSIPIFNETGRFSFTLPYPV [HACD3]", 2.68],
  ["LDPDTMHARLRLSADRLTVRCGLL [TRIM14]", 2.48],
  ["FQVVKDAVLDCLLDFLPKDVKKEK [TENT5D]", 4.95],
  ["ALGIYGAPYAAAAAAQSYPGYLPY [IRX6]", 2.19],
  ["GSFTVRADHGEPIGRGTKVILHLK [HSP90AB1]", 2.71]
]}

Exam item: Quickly give me recorded protein stability index for DRDMFFKICESLNVPVDDSLVKEL [EFHC1]
Marked response: 3.3

Exam item: Quickly give me recorded protein stability index for NMLKNIELFDKLSLRFNGRVLFIK [KCTD10]
Marked response: 2.43

Exam item: Quickly give me recorded protein stability index for DLDLIQSTPFKPLALKTPPRVLTL [MFF]
Marked response: 2.36

Exam item: Quickly give me recorded protein stability index for RWFRSVDWEAVPQRKLKPPIVPKI [PRKX]
Marked response: 2.44

Exam item: Quickly give me recorded protein stability index for SAVVQLYAADRNCMWSKKCSGVAC [WASL]
Marked response: 2.41

Exam item: Quickly give me recorded protein stability index for LIDYKSYMDTKLLVARFLEQSSCT [FAM189A2]
Marked response: 2.25

Exam item: Quickly give me recorded protein stability index for EEVDTGAVNLIESGACGAFVHGLE [INTS4]
Marked response: 4.85

Exam item: Quickly give me recorded protein stability index for HRGHCERRHRLGGVGAVPGPGTPT [ZBTB22]
Marked response: 4.36

Exam item: Quickly give me recorded protein stability index for AAIDNGLAFPLKHPDSWRAYPFYW [PI4K2A]
Marked response: 2.26

Exam item: Quickly give me recorded protein stability index for TTQDLFAINRDTAFPGASHESSGN [RHOBTB3]
Marked response: 4.87

Exam item: Quickly give me recorded protein stability index for PEKLIWGDQDPLSKIPFKILSGHE [WDR88]
Marked response: 3.45

----------
experiment: protein stability index of a GFP-peptide fusion (GPS, HEK-293T) (PSI 1-6); higher = more stable; conditions: treatment: DMSO; c terminus: a fixed tail appended
MEASUREMENT_NAME: protein stability index
Just the number, please.

Example results:
{"columns": ["RESIDUES", "MEASUREMENT_NAME", "OBSERVED_VALUE"],
 "data": [
  ["HRPSLNSVSLQINCQSVAQMNLLQ [DLC1]", "protein stability index", 2.4],
  ["GQLTGGYKPNPQIYVKLIEECTDL [OAS1]", "protein stability index", 2.99],
  ["CASDEGEVIVFGGCANNLLVHHRA [KLHDC2]", "protein stability index", 2.6],
  ["LLVQDATPVSNSLLPEKAFSDIPS [GFOD1]", "protein stability index", 3.35]
]}

# evaluate next
Exam item: Quickly give me recorded protein stability index for SSQSSLAQEEEEEDQGRTRKRKQS [DDIT3]
Marked response: 5.55
